Target: panel of 203 kinases (Homo sapiens, UniProt Q13188)
Construct: purchased DiscoverX (KINOMEscan)
Sequence (Q13188 1-491): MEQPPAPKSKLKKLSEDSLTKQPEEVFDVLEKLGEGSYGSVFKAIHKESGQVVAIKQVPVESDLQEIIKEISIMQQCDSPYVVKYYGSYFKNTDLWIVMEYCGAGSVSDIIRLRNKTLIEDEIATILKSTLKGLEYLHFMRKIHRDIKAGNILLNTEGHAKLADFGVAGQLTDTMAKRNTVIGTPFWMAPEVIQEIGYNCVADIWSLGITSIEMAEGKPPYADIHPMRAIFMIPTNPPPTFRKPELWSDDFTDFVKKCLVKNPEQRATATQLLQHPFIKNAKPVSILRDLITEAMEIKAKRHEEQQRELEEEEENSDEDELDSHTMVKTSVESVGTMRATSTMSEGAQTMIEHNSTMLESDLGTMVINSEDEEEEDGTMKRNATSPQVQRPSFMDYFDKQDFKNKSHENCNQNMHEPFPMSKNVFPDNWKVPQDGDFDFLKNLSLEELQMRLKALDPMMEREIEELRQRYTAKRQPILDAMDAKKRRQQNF
Assay: KINOMEscan competitive binding, whole panel
Settings: 10 µM, n=1; kinase MST2; read-out: Percent inhibition MST2
quantity-measured: inhibition at 10 µM (%)
API: value field is a number in %; no unit string.

Cc1ccc(O)cc1N(C)c1ccnc(Nc2cccc(S(N)(=O)=O)c2)n1 [Compound 4]
99.2
Cc1ccc(O)cc1Nc1ccnc(Nc2cccc(C(N)=O)c2)n1 [Compound 3]
94.4
COc1cc(Nc2nccc(-c3sc(N)nc3-c3cccc(NC(=O)c4c(F)cccc4F)c3)n2)cc(OC)c1OC [Compound 7]
99.9
COc1ccc(Nc2nccc(-c3cnn4ncccc34)n2)cc1 [Compound 2]
89.9

Next:
Req: Give the measured inhibition at 10 µM for Fc1cccc(COc2ccc(Nc3ncnc4c3CN(CCN3CCOCC3)CC4)cc2Cl)c1 [Compound 6]
Resp: 0
